Value source: patent US20240376097A1

system: RS4;11 (BCL-2 dependent acute lymphoblastic leukemia cell line); assay: RS4;11 Cell Proliferation Assay; type: cell-based; conditions: Homo sapiens, RS4-11, RS4;11 cells, read-out: Cellular proliferation assay (IC50, nM) RS4
experimental endpoint: IC50 (nM)
Just the number in nM, nothing appended.

// query Complete the entry with IC50 for `[2H]C([2H])([2H])Oc1ccc(CN2CCN(C3CC4(CCN(c5ccc(C(=O)NS(=O)(=O)c6ccc(NC[C@H]7CC[C@](C)(O)CC7)c([N+](=O)[O-])c6)c(Oc6cnc7[nH]ccc7c6)c5)CC4)C3)[C@H](c3ccccc3C(C)C)C2)cc1OC([2H])([2H])[2H]`
// result 0.11

// query Complete the entry with IC50 for `COc1cc(CN2CCN(C3CC4(C3)CN(c3ccc(C(=O)NS(=O)(=O)c5ccc(NC[C@H]6CC[C@](C)(O)CC6)c([N+](=O)[O-])c5)c(Oc5cnc6[nH]cc(F)c6c5)c3)C4)[C@H](c3ccccc3C(C)C)C2)ccc1C1COC1`
// result 0.14

// query Complete the entry with IC50 for CC(C)c1ccccc1C1CN(Cc2ccc3c(c2)OCO3)CCN1C1CC2(CCN(c3ccc(C(=O)NS(=O)(=O)c4ccc(NC[C@H]5CC[C@](C)(O)CC5)c([N+](=O)[O-])c4)c(Oc4cnc5[nH]ccc5c4)c3)CC2)C1 (stereo partly shown)
// result 0.3

// query Complete the entry with IC50 for `[2H]C([2H])([2H])Oc1ccc(CN2CCN(C3CC4(CCN(c5ccc(C(=O)NS(=O)(=O)c6ccc(NC[C@H]7CC[C@](C)(O)CC7)c([N+](=O)[O-])c6)c(Oc6cnc7[nH]cc(Cl)c7c6)c5)CC4)C3)[C@H](c3ccccc3C(C)C)C2)cc1OC([2H])([2H])[2H]`
// result 0.16

###

test: Mouse PK Study; type: in vivo; conditions: plasma; Po dosing (10 mg/kg), male CD-1 mouse
Exercise: for every item that follows, state its recorded Cmax.
Just the number in ng/mL, nothing appended.

// query Complete the entry with Cmax for CC(C)c1ccccc1[C@@H]1CN(Cc2ccc(F)c(F)c2)CCN1C1CC2(CCN(c3ccc(C(=O)NS(=O)(=O)c4ccc(NC[C@H]5CC[C@](C)(O)CC5)c([N+](=O)[O-])c4)c(Oc4cnc5[nH]ccc5c4)c3)CC2)C1 (single isomer, unassigned) [Example 52a]
// result 2140

// query Complete the entry with Cmax for `COc1cc(CN2CCN(C3CC4(C3)CN(c3ccc(C(=O)NS(=O)(=O)c5ccc(NC[C@H]6CC[C@](C)(O)CC6)c([N+](=O)[O-])c5)c(Oc5cnc6[nH]cc(F)c6c5)c3)C4)[C@H](c3ccccc3C(C)C)C2)ccc1C1CC1`
// result 1090

// query Complete the entry with Cmax for `COc1cc(CN2CCN(C3CC4(C3)CN(c3ccc(C(=O)NS(=O)(=O)c5ccc(NC[C@H]6CC[C@](C)(O)CC6)c([N+](=O)[O-])c5)c(Oc5cnc6[nH]ccc6c5)c3)C4)[C@H](c3ccccc3C(C)C)C2)ccc1C1CC1`
// result 1100

// query Complete the entry with Cmax for COc1ccc(CN2CCN(C3CC4(CCN(c5ccc(C(=O)NS(=O)(=O)c6ccc(NCC7(F)CCOCC7)c([N+](=O)[O-])c6)c(Oc6cnc7[nH]ccc7c6)c5)CC4)C3)[C@H](c3ccccc3C(C)C)C2)cc1 (single isomer, unassigned)
// result 1440

// query Complete the entry with Cmax for `COc1cc(CN2CCN(C3CC4(C3)CN(c3ccc(C(=O)NS(=O)(=O)c5ccc(NC[C@H]6CC[C@](C)(O)CC6)c([N+](=O)[O-])c5)c(Oc5cnc6[nH]cc(F)c6c5)c3)C4)[C@H](c3ccccc3C(C)C)C2)cc2cc(C)oc12`
// result 699

// query Complete the entry with Cmax for COc1ccc(CN2CCN(C3CC4(CCN(c5ccc(C(=O)NS(=O)(=O)c6ccc(NC[C@H]7CC[C@](C)(O)CC7)c([N+](=O)[O-])c6)c(Oc6cnc7[nH]ccc7c6)c5)CC4)C3)[C@H](c3ccccc3C(C)C)C2)cc1 [Example 19a]
// result 1590

###

Target: Recombinant human Bcl-2 protein (Homo sapiens (Human), UniProt P10415)
Sequence (P10415 whole entry): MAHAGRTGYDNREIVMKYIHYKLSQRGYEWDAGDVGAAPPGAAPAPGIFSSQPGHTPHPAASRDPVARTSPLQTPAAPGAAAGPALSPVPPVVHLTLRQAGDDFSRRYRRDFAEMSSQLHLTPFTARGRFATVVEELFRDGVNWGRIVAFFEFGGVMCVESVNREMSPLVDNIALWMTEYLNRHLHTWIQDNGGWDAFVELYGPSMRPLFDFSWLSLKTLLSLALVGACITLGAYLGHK
Assay: Bcl-2 TR-FRET Assay
Format: binding
Conditions: wild type Bcl-2; unit inferred; read-out: Bcl-2 WT
Description: Biological Example: Bcl-2 TR-FRET Assay Compounds disclosed herein were tested for blocking of Bcl-2 protein with its ligand in an assay based on Time-Resolved Fluorescence Resonance Energy Transfer (TR-FRET) methodology. […] The TR-FRET signals (337 nm-520 nm-490 nm) were read on BMG PHERAstar FSX instrument. The inhibition percentage of Bcl-2 interaction with its ligand in presence of increasing concentrations of compounds was calculated based on the TR-FRET signals. […]
experimental endpoint: IC50 (nM)
Just the number in nM, nothing appended.

// query Complete the entry with IC50 for CC(C)c1ccccc1C1CN(CCc2ccccc2)CCN1C1CC2(CCN(c3ccc(C(=O)NS(=O)(=O)c4ccc(NC[C@H]5CC[C@](C)(O)CC5)c([N+](=O)[O-])c4)c(Oc4cnc5[nH]ccc5c4)c3)CC2)C1 (some centres unmarked) [Example 26]
// result 0.11

// query Complete the entry with IC50 for COc1cc(CN2CCN(C3CC4(CCN(c5ccc(C(=O)NS(=O)(=O)c6ccc(NC[C@H]7CC[C@](C)(O)CC7)c([N+](=O)[O-])c6)c(Oc6cnc7[nH]ccc7c6)c5)CC4)C3)C(c3ccccc3C(C)C)C2)cc(C)c1OC (some centres unmarked) [Example 158]
// result 0.27

###

assay: Metabolic Stability Study, liver microsome incubation (human); type: in vitro ADME; details: human liver microsomes 0.5 mg/mL, 1 μM compound, NADPH; NA^# = very stable, beyond the detection limits; read-out: T1/2 (min) Human
experimental endpoint: half-life at 1 μM
Quick note: number first, unit second.

// query Complete the entry with half-life at 1 μM for CC(C)c1ccccc1C1CN(Cc2cccc(F)c2)CCN1C1CC2(CCN(c3ccc(C(=O)NS(=O)(=O)c4ccc(NC[C@H]5CC[C@](C)(O)CC5)c([N+](=O)[O-])c4)c(Oc4cnc5[nH]ccc5c4)c3)CC2)C1 (stereo partly shown)
// result 108 min

// query Complete the entry with half-life at 1 μM for `COc1cc(CN2CCN(C3CC4(CCN(c5ccc(C(=O)NS(=O)(=O)c6ccc(NC[C@H]7CC[C@](C)(O)CC7)c([N+](=O)[O-])c6)c(Oc6cnc7[nH]cc(F)c7c6)c5)CC4)C3)[C@H](c3ccccc3C(C)C)C2)cc2ccoc12`
// result 870 min

// query Complete the entry with half-life at 1 μM for COc1ccc(CN2CCN(C3CC4(CCN(c5ccc(C(=O)NS(=O)(=O)c6ccc(NC[C@H]7CC[C@](C)(O)CC7)c([N+](=O)[O-])c6)c(Oc6cnc7[nH]ccc7c6)c5)CC4)C3)C(c3ccccc3C(C)C)C2)c(OC)c1 (stereo partly shown)
// result 256 min

// query Complete the entry with half-life at 1 μM for COc1ccc(CN2CCN(C3CC4(CCN(c5ccc(C(=O)NS(=O)(=O)c6ccc(NC[C@H]7CC[C@](C)(O)CC7)c([N+](=O)[O-])c6)c(Oc6cnc7[nH]ccc7c6)c5)CC4)C3)C(c3ccccc3C(C)C)C2)cn1 (stereo partly shown)
// result 491 min

###

target: recombinant human Bcl-2 D103Y protein (Homo sapiens (Human), UniProt P10415, D103Y); assay: Bcl-2-D103Y Biochemical Assay (TR-FRET); settings: TR-FRET, FITC labeled Bak peptide
Sequence (P10415 whole entry D103Y): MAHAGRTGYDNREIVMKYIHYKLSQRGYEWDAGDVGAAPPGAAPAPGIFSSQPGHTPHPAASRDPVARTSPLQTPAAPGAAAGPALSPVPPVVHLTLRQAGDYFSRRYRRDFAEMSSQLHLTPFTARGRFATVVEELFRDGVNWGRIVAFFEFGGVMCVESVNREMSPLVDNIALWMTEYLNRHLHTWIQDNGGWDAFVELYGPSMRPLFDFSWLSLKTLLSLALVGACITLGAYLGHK
experimental endpoint: IC50 (pM)
Just the number in pM, nothing appended.

// query Complete the entry with IC50 for `COc1cc(CN2CCN(C3CC4(C3)CN(c3ccc(C(=O)NS(=O)(=O)c5ccc(NC[C@H]6CC[C@](C)(O)CC6)c([N+](=O)[O-])c5)c(Oc5cnc6[nH]ccc6c5)c3)C4)[C@H](c3ccccc3C(C)C)C2)cc2cc(C)oc12`
// result 710

// query Complete the entry with IC50 for CC(C)c1ccccc1C1CN(Cc2cnn(C)c2)CCN1C1CC2(CCN(c3ccc(C(=O)NS(=O)(=O)c4ccc(NC[C@H]5CC[C@](C)(O)CC5)c([N+](=O)[O-])c4)c(Oc4cnc5[nH]ccc5c4)c3)CC2)C1 (single isomer, unassigned) [Example 22a]
// result 41

// query Complete the entry with IC50 for `COc1cc(CN2CCN(C3CC4(C3)CN(c3ccc(C(=O)NS(=O)(=O)c5ccc(NC[C@H]6CC[C@](C)(O)CC6)c([N+](=O)[O-])c5)c(Oc5cnc6[nH]cc(F)c6c5)c3)C4)[C@H](c3ccccc3C(C)C)C2)cc(C)c1OC`
// result 450

// query Complete the entry with IC50 for `COc1cc(CN2CCN(C3CC4(C3)CN(c3ccc(C(=O)NS(=O)(=O)c5ccc(NC[C@H]6CC[C@](C)(O)CC6)c([N+](=O)[O-])c5)c(Oc5cnc6[nH]cc(F)c6c5)c3)C4)[C@H](c3ccccc3C(C)C)C2)ccc1OC1COC1`
// result 70

// query Complete the entry with IC50 for `[2H]C([2H])([2H])Oc1ccc(CN2CCN(C3CC4(CCN(c5ccc(C(=O)NS(=O)(=O)c6ccc(NC[C@H]7CC[C@](C)(O)CC7)c([N+](=O)[O-])c6)c(Oc6cnc7[nH]cc(F)c7c6)c5)CC4)C3)[C@H](c3ccccc3C(C)C)C2)cc1OC([2H])([2H])[2H]`
// result 80

// query Complete the entry with IC50 for COc1ccc(CN2CCN(C3CC4(CCN(c5ccc(C(=O)NS(=O)(=O)c6ccc(NC[C@H]7CC[C@](C)(O)CC7)c([N+](=O)[O-])c6)c(Oc6cnc7[nH]ccc7c6)c5)CC4)C3)C(c3ccccc3C(C)C)C2)cc1OC (some centres unmarked)
// result 84

// query Complete the entry with IC50 for CC(C)c1ccccc1C1CN(Cc2ccccc2)CCN1C1CC2(CCN(c3ccc(C(=O)NS(=O)(=O)c4ccc(NC[C@H]5CC[C@](C)(O)CC5)c([N+](=O)[O-])c4)c(Oc4cnc5[nH]ccc5c4)c3)CC2)C1 (some centres unmarked)
// result 260

// query Complete the entry with IC50 for `COc1ccc(CN2CCN(C3CC4(C3)CN(c3ccc(C(=O)NS(=O)(=O)c5ccc(NC[C@H]6CC[C@](C)(O)CC6)c([N+](=O)[O-])c5)c(Oc5cnc6[nH]ccc6c5)c3)C4)[C@H](c3ccccc3C(C)C)C2)cc1OC`
// result 45
